Biological target: T1, GPR10 (UniProt P49683 1-370, limits assumed)
T1 sequence (looked up): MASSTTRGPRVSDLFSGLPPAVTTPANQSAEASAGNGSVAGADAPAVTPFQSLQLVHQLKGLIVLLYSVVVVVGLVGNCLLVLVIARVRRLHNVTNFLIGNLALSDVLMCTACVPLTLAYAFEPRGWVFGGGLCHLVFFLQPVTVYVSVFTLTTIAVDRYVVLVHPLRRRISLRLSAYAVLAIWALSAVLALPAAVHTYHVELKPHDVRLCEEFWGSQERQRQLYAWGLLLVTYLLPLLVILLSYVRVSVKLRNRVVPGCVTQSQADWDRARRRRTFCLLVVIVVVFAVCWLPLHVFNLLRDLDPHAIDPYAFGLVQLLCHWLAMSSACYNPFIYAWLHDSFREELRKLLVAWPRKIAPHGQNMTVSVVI
Assay: cell-based or functional assay
Bridges are numbered along the chain shown (N, C = ends). Where no end group is shown, it is not given here. L1 = not defined here; L3 = not defined here; L4 = not defined here; L5 = not defined here
Kindly state GPR10 EC50 for each of the entries shown.
Reply with just the number (in nM).

Find the measured GPR10 EC50 of TPCINPAWYCGRGIRPVGRF-NH2 (cysteine pairing not given here) [SEQ ID NO 104] and report it.
16

State, in one line, measured GPR10 EC50 of TPDCNPAWYTCRGIRPVGRF-NH2 (linker 4-11 via L3; reading uncertain) [Conjugate 216]
3.9

# return recorded GPR10 EC50 for input SRAHQCSMETRTCDINPAWYTGRGIRPVGRF-NH2 (linker 6-13 via L5; reading uncertain) [Conjugate 238]
260

For CRAHQHSCETRTPDINPAWYTGRGIRPVGRF-NH2 (linker 1-8 via L4; reading uncertain) [Conjugate 234] , write its GPR10 EC50.
230

Return GPR10 EC50 (reported value) for this binder: SRAHQCSMETRTCDINPAWYTGRGIRPVGRF-NH2 (cysteine pairing not given here) [SEQ ID NO 90]
29

Determine its reported GPR10 EC50: TPDINPAWYCGRGIRPCGRF-NH2 (cysteine pairing not given here) [SEQ ID NO 88]
1600

Please report GPR10 EC50 for the following binder: TCDINPAWCTGRGIRPVGRF-NH2 (linker 2-9 via L4; reading uncertain) [Conjugate 214]
230

For TPDCNPAWYTCRGIRPVGRF-NH2 (linker 4-11 via L4; reading uncertain) [Conjugate 217] , write its GPR10 EC50.
77

Please give the documented GPR10 EC50 of TPDCNPAWYTCRGIRPVGRF-NH2 (linker 4-11 via L1; reading uncertain) [Conjugate 206]
7.3

Please list GPR10 EC50 recorded for the binder SRAHQCSMETRTCDINPAWYTGRGIRPVGRF-NH2 (linker 6-13 via L3; reading uncertain) [Conjugate 236]
13

Please supply the value of reported GPR10 EC50 for the item SRAHQHSMETRTPDICPAWYTGCGIRPVGRF-NH2 (linker 16-23 via L1; reading uncertain) [Conjugate 230]
29

Return value of GPR10 EC50 for input TPDICPAWYTGCGIRPVGRF-NH2 (linker 5-12 via L3; reading uncertain) [Conjugate 219] , no commentary.
25

Give the reported GPR10 EC50 for this binder. CRAHQHSCETRTPDINPAWYTGRGIRPVGRF-NH2 (linker 1-8 via L5; reading uncertain) [Conjugate 235]
330

Give the value of GPR10 EC50 reported for the following: TPDICPAWYTGCGIRPVGRF-NH2 (linker 5-12 via L4; reading uncertain) [Conjugate 220]
610

Assign GPR10 EC50 to the following record: SRAHQHSMETRTPDINPAWCTGRGIRCVGRF-NH2 (linker 20-27 via L1; reading uncertain) [Conjugate 232]
130

Consider the binder TPDINPAWYTGRGIRPVGRF-NH2 [SEQ ID NO 106] . State its measured GPR10 EC50.
13

Determine from records and report GPR10 EC50 for TCDINPAWCTGRGIRPVGRF-NH2 (cysteine pairing not given here) [SEQ ID NO 103]
33

Quote GPR10 EC50 reported for SRAHQHSMETRTPDINPCWYTGRGCRPVGRF-NH2 (linker 18-25 via L1; reading uncertain) [Conjugate 231] please.
18

Give GPR10 EC50 for TPDINPACYTGRGICPVGRF-NH2 (linker 8-15 via L1; reading uncertain) [Conjugate 210]
720

Input SRAHQHSMETRTPDINPCWYTGRGCRPVGRF-NH2 (cysteine pairing not given here) [SEQ ID NO 95] , output reported GPR10 EC50.
33
